experiment: yeast display, Sf9 membrane polyspecificity reagent, FACS + sequencing; frameworks hold sequencing errors
MEASURED QUANTITY: polyreactivity (PSR sort gate)

Solved cases (4 shown):
- QUERY SEQUENCE: "QVQLVESGGGFVQAGGSLRLSCAASGSTFHDNAMGWYRQAPGKERELVAGISISGVSTFYADSVKGRFTISRDYAKNTVYLQMNSLKPEDTAVYYCTADDVSAYQRFDYWGQGTQVTVSS"
  MEASURED QUANTITY: "polyreactivity (PSR sort gate)"
  MEAS VALUE: "low polyreactivity"
- QUERY SEQUENCE: "QVQLVESGGGLVQAGGSLRLSCAASGGILGVNAMGWYRQAPGKERELVAAISGRGGRTYYADSVKGRSTISRDNAKNTVYLQLNSLKPEDTAVYYCAVEFYSVARFPLWSYYWGQGTQVTVSS"
  MEASURED QUANTITY: "polyreactivity (PSR sort gate)"
  MEAS VALUE: "high polyreactivity"
- QUERY SEQUENCE: "QVQLVESGGGLVQAGGSLRLSCAASGLTFVDNALGWYRQAPGKERELVAAISYNGGSTYYADSVKGRFTISRDNAKNTVYLQMNSLKPEDTAVYYCAADISVGRYGDMDYWGQGTQVTVSS"
  MEASURED QUANTITY: "polyreactivity (PSR sort gate)"
  MEAS VALUE: "low polyreactivity"
- QUERY SEQUENCE: "QVQLVESWGGLVQAGGSLRLSCAASGHTFREKAMGWYRQAPGKERELLAAITSSGRTYYADSVKGRFTISRDNAKNTVYLQMNRQKPEDTAVYYCAADYWYVYPRYNPGDYWGQGSQVTVSS"
  MEASURED QUANTITY: "polyreactivity (PSR sort gate)"
  MEAS VALUE: "high polyreactivity"

As a next step, examine the sequence that follows.
Any idea what polyreactivity (PSR sort gate) was measured for `QVQLVESGGGLVQAGGSLRLSCAPSGRTFWAYAMGWYRQAPGKERELVAAITTSGGSTNYADSVKGRFTISRDNAKNTVYLQMNSLKPEDTAVYYCNADPTYHVVNGVGYWGQGTQVTESS` ? low polyreactivity
